ASSAYED SYSTEM: T1, human MSLN-R2-his protein (human, UniProt Q13421 391-486)
T1 construct: it is put last here; also called human MSLN-R2 protein; hMSLN-R2-his; not shown: His tag
T1 sequence (Q13421 other isoform, or with tags, fused parts or gaps): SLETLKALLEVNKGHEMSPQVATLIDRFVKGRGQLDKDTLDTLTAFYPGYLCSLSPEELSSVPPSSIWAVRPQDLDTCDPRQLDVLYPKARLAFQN
MEASUREMENT PROTOCOL: ELISA on coated antigen, antibody 0.02 nM
Measured OD450, listed per entry.
I only need the number, in OD, no unit after it.

A selection of reference data follows.
{"BINDER": "S009-F7.30.5 (antibody, human IgG1, kappa, V domains shown, Human-murine chimeric antibody, human IgG1 heavy and kappa light constant regions) VH: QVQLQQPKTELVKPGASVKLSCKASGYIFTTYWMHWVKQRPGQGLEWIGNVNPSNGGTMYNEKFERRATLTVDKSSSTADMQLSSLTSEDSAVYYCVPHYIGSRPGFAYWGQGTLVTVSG VL: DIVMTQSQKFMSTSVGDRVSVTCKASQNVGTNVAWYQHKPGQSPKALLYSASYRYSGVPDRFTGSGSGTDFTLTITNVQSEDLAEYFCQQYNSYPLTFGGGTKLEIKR", "VALUE TYPE": "OD450", "DISPLAY UNIT": "OD", "OBS VALUE": 0.05}
{"BINDER": "Tab106 (YP218, hIgG1) (antibody, V domains shown, Control antibody; YP218 VH and VL recombined into human IgG1 CH and CL expression vectors; also called YP218 human IgG1 antibody) VH: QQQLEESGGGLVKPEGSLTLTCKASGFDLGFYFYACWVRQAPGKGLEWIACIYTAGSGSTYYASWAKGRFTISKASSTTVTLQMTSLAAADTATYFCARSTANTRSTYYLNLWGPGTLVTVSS VL: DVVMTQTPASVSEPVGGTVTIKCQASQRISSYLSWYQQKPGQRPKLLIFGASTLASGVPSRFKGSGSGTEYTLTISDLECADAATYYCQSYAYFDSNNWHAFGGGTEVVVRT", "VALUE TYPE": "OD450", "DISPLAY UNIT": "OD", "OBS VALUE": 0.17}
{"BINDER": "S009-F7.23.19 (antibody, human IgG1, kappa, V domains shown, Human-murine chimeric antibody, human IgG1 heavy and kappa light constant regions) VH: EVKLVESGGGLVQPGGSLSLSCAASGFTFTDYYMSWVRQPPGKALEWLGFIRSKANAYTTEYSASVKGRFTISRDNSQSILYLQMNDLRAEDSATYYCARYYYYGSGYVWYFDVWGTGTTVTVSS VL: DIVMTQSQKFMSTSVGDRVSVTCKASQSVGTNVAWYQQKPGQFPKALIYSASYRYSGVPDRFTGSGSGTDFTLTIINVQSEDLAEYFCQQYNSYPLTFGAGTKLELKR", "VALUE TYPE": "OD450", "DISPLAY UNIT": "OD", "OBS VALUE": 0.05}
{"BINDER": "S009-F7.44.20 (antibody, human IgG1, kappa, V domains shown, Human-murine chimeric antibody, human IgG1 heavy and kappa light constant regions) VH: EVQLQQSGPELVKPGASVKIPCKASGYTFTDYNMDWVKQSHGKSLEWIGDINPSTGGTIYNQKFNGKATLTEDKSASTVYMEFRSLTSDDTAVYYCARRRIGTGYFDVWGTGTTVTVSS VL: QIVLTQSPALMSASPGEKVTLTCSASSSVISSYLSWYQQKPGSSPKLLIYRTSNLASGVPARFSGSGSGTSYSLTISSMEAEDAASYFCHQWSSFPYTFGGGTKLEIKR", "VALUE TYPE": "OD450", "DISPLAY UNIT": "OD", "OBS VALUE": 0.05}

Note down OD450 recorded for S009-F7.66.12 (antibody, human IgG1, kappa, V domains shown, Human-murine chimeric antibody, human IgG1 heavy and kappa light constant regions) VH: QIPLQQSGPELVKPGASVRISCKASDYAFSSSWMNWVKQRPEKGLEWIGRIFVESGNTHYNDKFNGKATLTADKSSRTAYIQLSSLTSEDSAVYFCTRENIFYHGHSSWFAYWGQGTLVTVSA VL: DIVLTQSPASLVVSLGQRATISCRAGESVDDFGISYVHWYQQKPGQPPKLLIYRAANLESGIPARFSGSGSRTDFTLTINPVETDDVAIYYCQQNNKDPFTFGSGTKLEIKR 0.05

Numbers sourced from patent US20250250357A1.
